biological target: human NaV1.5 (hNaV1.5) (Homo sapiens); conditions: read-out: IC50 of hNaV1.5 current inhibition (Hill fit, constrained); current after 5 min; Hill coefficient constrained to 1 and remaining current to zero
Sequence (Q14524 whole entry): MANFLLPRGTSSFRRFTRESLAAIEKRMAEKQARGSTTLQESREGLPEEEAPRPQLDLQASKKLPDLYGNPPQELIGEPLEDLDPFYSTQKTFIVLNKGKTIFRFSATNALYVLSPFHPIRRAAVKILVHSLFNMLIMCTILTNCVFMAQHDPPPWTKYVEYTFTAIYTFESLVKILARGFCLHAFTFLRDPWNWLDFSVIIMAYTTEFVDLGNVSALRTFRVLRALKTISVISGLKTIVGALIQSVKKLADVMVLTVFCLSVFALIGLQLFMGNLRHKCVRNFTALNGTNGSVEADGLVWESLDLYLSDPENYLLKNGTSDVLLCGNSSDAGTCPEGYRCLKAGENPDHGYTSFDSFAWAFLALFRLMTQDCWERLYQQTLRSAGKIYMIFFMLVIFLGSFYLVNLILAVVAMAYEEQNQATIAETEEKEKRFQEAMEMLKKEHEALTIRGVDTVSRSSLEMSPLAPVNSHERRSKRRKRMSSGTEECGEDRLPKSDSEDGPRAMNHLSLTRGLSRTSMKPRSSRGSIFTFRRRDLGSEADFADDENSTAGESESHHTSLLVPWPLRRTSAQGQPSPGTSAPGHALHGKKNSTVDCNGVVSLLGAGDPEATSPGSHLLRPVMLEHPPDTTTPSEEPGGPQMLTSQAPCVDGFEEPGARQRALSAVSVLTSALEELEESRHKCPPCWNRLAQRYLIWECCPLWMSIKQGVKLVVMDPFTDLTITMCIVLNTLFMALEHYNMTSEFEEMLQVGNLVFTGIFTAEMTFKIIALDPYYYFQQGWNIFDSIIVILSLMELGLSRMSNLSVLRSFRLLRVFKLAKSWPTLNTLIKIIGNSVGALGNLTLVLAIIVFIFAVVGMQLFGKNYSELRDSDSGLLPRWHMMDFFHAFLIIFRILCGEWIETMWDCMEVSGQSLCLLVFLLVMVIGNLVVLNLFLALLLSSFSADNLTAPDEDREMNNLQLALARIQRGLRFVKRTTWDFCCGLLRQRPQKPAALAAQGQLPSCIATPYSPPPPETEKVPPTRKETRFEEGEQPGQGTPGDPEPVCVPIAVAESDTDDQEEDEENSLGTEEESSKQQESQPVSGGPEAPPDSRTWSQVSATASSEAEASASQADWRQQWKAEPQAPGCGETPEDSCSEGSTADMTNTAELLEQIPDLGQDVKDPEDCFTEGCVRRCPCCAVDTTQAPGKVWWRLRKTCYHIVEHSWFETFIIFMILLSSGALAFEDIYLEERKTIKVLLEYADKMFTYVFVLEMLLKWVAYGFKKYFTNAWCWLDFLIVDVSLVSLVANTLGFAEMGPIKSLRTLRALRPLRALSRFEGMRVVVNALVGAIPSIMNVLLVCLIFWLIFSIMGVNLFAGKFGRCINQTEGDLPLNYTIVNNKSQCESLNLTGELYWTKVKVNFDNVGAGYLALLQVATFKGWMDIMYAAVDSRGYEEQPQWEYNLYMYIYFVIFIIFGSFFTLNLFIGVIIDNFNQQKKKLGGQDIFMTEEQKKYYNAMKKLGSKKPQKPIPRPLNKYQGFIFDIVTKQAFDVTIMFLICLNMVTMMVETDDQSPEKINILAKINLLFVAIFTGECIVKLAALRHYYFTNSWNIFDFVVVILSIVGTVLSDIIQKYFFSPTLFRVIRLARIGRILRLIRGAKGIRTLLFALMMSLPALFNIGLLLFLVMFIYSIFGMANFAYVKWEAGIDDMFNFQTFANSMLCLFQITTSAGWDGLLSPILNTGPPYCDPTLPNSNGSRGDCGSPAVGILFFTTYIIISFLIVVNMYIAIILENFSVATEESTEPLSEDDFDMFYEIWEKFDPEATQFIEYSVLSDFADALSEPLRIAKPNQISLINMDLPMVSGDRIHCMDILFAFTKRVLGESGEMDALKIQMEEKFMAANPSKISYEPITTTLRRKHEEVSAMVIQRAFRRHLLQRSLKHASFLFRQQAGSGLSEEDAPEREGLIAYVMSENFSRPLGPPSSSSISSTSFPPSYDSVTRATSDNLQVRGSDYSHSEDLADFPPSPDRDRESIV
Overview of recorded pIC50 for various compounds
Schema: pIC50 number; meaning minus log10 of the concentration expressed in molar units.

Reference set (2 entries):
entry_smiles=C=CC1=C(C)c2cc3[n-]c(cc4nc(cc5[n-]c(cc1n2)c(C)c5C=C)C(C)=C4CCC(=O)O)c(CCC(=O)O)c3C.[Zn+2] recorded_measurement=6.97
entry_smiles=C=CC1=C(C)c2cc3[n-]c(cc4[n-]c(cc5nc(cc1n2)C(C)=C5C=C)c(C)c4CCC(=O)[O-])c(CCC(=O)[O-])c3C.[H+].[H+].[Mn+2] recorded_measurement=6.17

# context switch: different compound, same pIC50
Dear colleague, I am looking for the recorded pIC50 of the following compound: `C=CC1=C(C)C2=Cc3c(C=C)c(C)c4[n]3[Ga][n]3c(c(C)c(CCC(=O)O)c3=CC3=NC(=C4)C(C)=C3CCC(=O)O)=CC1=N2` 6.93
